Hello, the source for this data is the supplement of paper PMC10733146, in case you need it.

# System: primary T-NHL patient cells (S058)
# Assay method text: viability relative to DMSO control (fraction); higher = less drug effect (more viable cells)
# Condition notes: 0.008 µM; 48 h
Measured endpoint: viability

Nc1ccc2ncnc(NCCc3ccc(Oc4ccccc4)cc3)c2c1 [EVP4593]	1.09
C/C=C1\NC(=O)[C@H]2CSSCC/C=C/[C@H](CC(=O)N[C@H](C(C)C)C(=O)N2)OC(=O)[C@H](C(C)C)NC1=O [Romidepsin]	0.365
COc1cccc2c1C(=O)c1c(O)c3c(c(O)c1C2=O)C[C@@](O)(C(=O)CO)C[C@@H]3O[C@H]1C[C@H](N)[C@H](O)[C@H](C)O1 [Doxorubicin]	0.96
Cc1nc(Nc2ncc(C(=O)Nc3c(C)cccc3Cl)s2)cc(N2CCN(CCO)CC2)n1 [Dasatinib]	0.836

###

# System: primary CLL patient cells (S031)
# Assay method text: viability relative to DMSO control (fraction); higher = less drug effect (more viable cells)
# Condition notes: 0.008 µM; 48 h
Attribute: viability
Measured endpoint: viability

Cc1nc(Nc2ncc(C(=O)Nc3c(C)cccc3Cl)s2)cc(N2CCN(CCO)CC2)n1	0.609
CC(C)C[C@H](NC(=O)CNC(=O)c1cc(Cl)ccc1Cl)B(O)O	0.876
COc1cccc2c1C(=O)c1c(O)c3c(c(O)c1C2=O)C[C@@](O)(C(C)=O)C[C@@H]3O[C@H]1C[C@H](N)[C@H](O)[C@H](C)O1	0.809
O=C1c2c(O)ccc(O)c2C(=O)c2c(NCCNCCO)ccc(NCCNCCO)c21	0.614

###

# Test system: primary FL patient cells (S022)
# Assay method text: viability relative to DMSO control (fraction); higher = less drug effect (more viable cells)
# Condition notes: 0.016 µM; 48 h
Measured endpoint: viability

CC(C)c1cc(-c2n[nH]c(=O)n2-c2ccc3c(ccn3C)c2)c(O)cc1O [Ganetespib]	0.865
CC[C@H](Nc1ncnc2[nH]cnc12)c1nc2cccc(F)c2c(=O)n1-c1ccccc1 [Idelalisib]	1.09
CN1CC[C@H](c2c(O)cc(O)c3c(=O)cc(-c4ccccc4Cl)oc23)[C@H](O)C1 [Flavopiridol]	0.958
Cc1sc2c(c1C)C(c1ccc(Cl)cc1)=N[C@@H](CC(=O)Nc1ccc(O)cc1)c1nnc(C)n1-2 [OTX015]	0.981

###

# Test system: primary AML patient cells (S037)
# Assay method text: viability relative to DMSO control (fraction); higher = less drug effect (more viable cells)
# Condition notes: 0.12 µM; 48 h
Measured endpoint: viability

Nc1nc(=S)c2[nH]cnc2[nH]1	0.937
N#CC[C@H](C1CCCC1)n1cc(-c2ncnc3[nH]ccc23)cn1	0.956
CCc1nc(C(N)=O)c(Nc2ccc(N3CCC(N4CCN(C)CC4)CC3)c(OC)c2)nc1NC1CCOCC1	1.02
Nc1nc(Cl)nc2c1ncn2[C@@H]1O[C@H](CO)[C@@H](O)[C@@H]1F	0.834

###

# Tested on: primary AML patient cells (S011)
# Assay method text: viability relative to DMSO control (fraction); higher = less drug effect (more viable cells)
# Condition notes: 3 µM; 48 h
Hi! Could you tag entries with viability below 0.8 as 1 (yes), and those at or above as 0 (no)? Much appreciated.

Nc1ncn([C@H]2C[C@H](O)[C@@H](CO)O2)c(=O)n1 [Decitabine (Dacogen)]	0 (no)
CNC(=O)c1cc(Oc2ccc(NC(=O)Nc3ccc(Cl)c(C(F)(F)F)c3)cc2)ccn1 [Sorafenib]	0 (no)
C[C@@H](Oc1cc(-c2cnn(C3CCNCC3)c2)cnc1N)c1c(Cl)ccc(F)c1Cl [Crizotinib]	1 (yes)
Cc1cc(Nc2ncc(Cl)c(Nc3ccccc3S(=O)(=O)C(C)C)n2)c(OC(C)C)cc1C1CCNCC1 [Ceritinib]	1 (yes)
CS(=O)(=O)c1ccc(C(=O)Nc2ccc(Cl)c(-c3ccccn3)c2)c(Cl)c1 [Vismodegib]	0 (no)
Nc1nc(Cl)nc2c1ncn2[C@@H]1O[C@H](CO)[C@@H](O)[C@@H]1F [Clofarabine]	1 (yes)

###

# Test system: primary AML patient cells (S002)
# Assay method text: viability relative to DMSO control (fraction); higher = less drug effect (more viable cells)
# Condition notes: 0.4 µM; 48 h
Attribute: viability
Measured endpoint: viability

CC[C@H](Nc1ncnc2[nH]cnc12)c1nc2cccc(F)c2c(=O)n1-c1ccccc1 [Idelalisib]	0.924
CC(C)c1cc(C(=O)N2Cc3ccc(CN4CCN(C)CC4)cc3C2)c(O)cc1O [Onalespib]	0.292
Nc1nc(F)nc2c1ncn2[C@@H]1O[C@H](CO)[C@@H](O)[C@@H]1O [Fludarabine]	0.9
CC(C)c1cc(-c2n[nH]c(=O)n2-c2ccc3c(ccn3C)c2)c(O)cc1O [Ganetespib]	0.326

###

# Tested on: primary MCL patient cells (S041)
# Assay method text: viability relative to DMSO control (fraction); higher = less drug effect (more viable cells)
# Condition notes: 1 µM; 48 h
Hi! Could you tag entries with viability below 0.07 as label 1, and those at or above as label 0? Much appreciated.

Nc1cccc2c1CN(C1CCC(=O)NC1=O)C2=O (stereo not given) [Lenalidomide]	label 0
CC#CC(=O)N1CCC[C@H]1c1nc(-c2ccc(C(=O)Nc3ccccn3)cc2)c2c(N)nccn12	label 0
CCc1cnn2c(NCc3ccc[n+]([O-])c3)cc(N3CCCC[C@H]3CCO)nc12	label 1
COc1cccc2c1C(=O)c1c(O)c3c(c(O)c1C2=O)C[C@@](O)(C(C)=O)C[C@@H]3O[C@H]1C[C@H](N)[C@H](O)[C@H](C)O1	label 1
O=C1c2c(O)ccc(O)c2C(=O)c2c(NCCNCCO)ccc(NCCNCCO)c21	label 0

###

# Tested on: primary AML patient cells (S009)
# Assay method text: viability relative to DMSO control (fraction); higher = less drug effect (more viable cells)
# Condition notes: 2 µM; 48 h
Measured endpoint: viability

Nc1nc(F)nc2c1ncn2[C@@H]1O[C@H](CO)[C@@H](O)[C@@H]1O [Fludarabine]	0.402
Cc1sc2c(c1C)C(c1ccc(Cl)cc1)=N[C@@H](CC(=O)Nc1ccc(O)cc1)c1nnc(C)n1-2 [OTX015]	0.489
CC(C)c1cc(C(=O)N2Cc3ccc(CN4CCN(C)CC4)cc3C2)c(O)cc1O [Onalespib]	0.648
CN1CC[C@H](c2c(O)cc(O)c3c(=O)cc(-c4ccccc4Cl)oc23)[C@H](O)C1 [Flavopiridol]	0.0899

###

# Tested on: primary AML patient cells (S072)
# Assay method text: viability relative to DMSO control (fraction); higher = less drug effect (more viable cells)
# Condition notes: 0.12 µM; 48 h
Attribute: viability
Measured endpoint: viability

CNC(=O)c1cc(Oc2ccc(NC(=O)Nc3ccc(Cl)c(C(F)(F)F)c3)cc2)ccn1	1.04
Nc1ncn([C@H]2C[C@H](O)[C@@H](CO)O2)c(=O)n1	0.93
N#CC[C@H](C1CCCC1)n1cc(-c2ncnc3[nH]ccc23)cn1	0.925
Oc1ccc(/C=C/c2cc(O)cc(O)c2)cc1	0.797

###

Attribute: viability
# System: primary AML patient cells (S012)
# Assay method text: viability relative to DMSO control (fraction); higher = less drug effect (more viable cells)
# Condition notes: 0.04 µM; 48 h
Measured endpoint: viability

CC(C)(C)C[C@@H]1N[C@@H](C(=O)N[C@H]2CC[C@H](O)CC2)[C@H](c2cccc(Cl)c2F)[C@]12C(=O)Nc1cc(Cl)ccc12 [MI-773]	0.971
CC(C)C[C@H](NC(=O)CNC(=O)c1cc(Cl)ccc1Cl)B(O)O [Ixazomib]	0.971
C/C=C1\NC(=O)[C@H]2CSSCC/C=C/[C@H](CC(=O)N[C@H](C(C)C)C(=O)N2)OC(=O)[C@H](C(C)C)NC1=O [Romidepsin]	0.0806
CCc1cnn2c(NCc3ccc[n+]([O-])c3)cc(N3CCCC[C@H]3CCO)nc12 [Dinaciclib]	0.0686

###

Attribute: viability
# System: primary MCL patient cells (S063)
# Assay method text: viability relative to DMSO control (fraction); higher = less drug effect (more viable cells)
# Condition notes: 1 µM; 48 h
Measured endpoint: viability

Nc1ccc2ncnc(NCCc3ccc(Oc4ccccc4)cc3)c2c1 [EVP4593]	0.874
O=C1c2c(O)ccc(O)c2C(=O)c2c(NCCNCCO)ccc(NCCNCCO)c21 [Mitoxantrone]	0.246
CC(C)(C)C[C@@H]1N[C@@H](C(=O)N[C@H]2CC[C@H](O)CC2)[C@H](c2cccc(Cl)c2F)[C@]12C(=O)Nc1cc(Cl)ccc12 [MI-773]	0.705
COc1cccc2c1C(=O)c1c(O)c3c(c(O)c1C2=O)C[C@@](O)(C(=O)CO)C[C@@H]3O[C@H]1C[C@H](N)[C@H](O)[C@H](C)O1 [Doxorubicin]	0.0566
Cc1nc(Nc2ncc(C(=O)Nc3c(C)cccc3Cl)s2)cc(N2CCN(CCO)CC2)n1 [Dasatinib]	0.118
